# target under test: T1, recombinant human sPLA2-GIB (mature secreted form of group IB pancreatic phospholipase A2) (human, UniProt P04054 23-148)
# T1 construct: Genbank NP_000919 printed for human PLA2-GIB; also called sPLA2-IB; mature sPLA2-GIB
# T1 sequence (P04054 23-148): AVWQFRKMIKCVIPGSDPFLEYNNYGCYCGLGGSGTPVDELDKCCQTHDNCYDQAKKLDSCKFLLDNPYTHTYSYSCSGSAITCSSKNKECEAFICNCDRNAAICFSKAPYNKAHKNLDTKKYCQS
# protocol text: competition ELISA on coated sPLA2-IB; competitor biotinylated 7A10
property label: percentage of signal (%)

[[record]]
binder = "#1C11 (antibody, IgG1, V domains shown, also called monoclonal antibody 1C11; #1C11 mAb) VH: EVKLQESGPELVKPGASVKISCKVSGYAFSSFWMNWVKQRPGKGLEWIGRIYPGDGDINYNGKFKGKATLTADKSSSTAYMQLSSLTSEDSAVYFCVRGWAWFPYWGQGTLVTVSA VL: EIVLTQSPAITSASLGQRVTISCSATSSVSYVHWYQQKSGTSPKPWIYEISRLASGVPARFSGSGSGTSYSLTISTMEAEDAAIYYCQSWNFPLLSFGAGTKLELKR"
readout_value = 1150

